Origin of values: PubChem BioAssay (NCI)

test system: U251 CNS; experiment: NCI-60 one-dose screen, 48 h (100 = growth as untreated, 0 = no growth, -100 = all killed); settings: 10 µM unless noted
This is part of a sample that, as a whole, favours compounds with a hit. Of some 83,000 tested, about 20% had one in any assay.
Value type: growth (%)
Reply numerically in %, unit not repeated.

Worked cases, growth given:
COc1cc(C2C(C(=O)OCc3ccccc3)=C(C)Nc3nc4ccccc4n32)cc(OC)c1OC (configuration not stated) = 27
COC(=O)c1c(C(=O)OC)c2ccc3c4ccccc4ccc3n2c1C(=O)C(C)Br (configuration not stated) = 23.9
Clc1ccc2c(NCCNC34CC5CC(CC(C5)C3)C4)ccnc2c1 = -61.8

In: // lookup growth for `CC(C)CN1C(=O)/C(=C\C(=O)c2cc3ccccc3oc2=O)c2ccccc21`
Out: 106

In: # iterate: `N#Cc1cc(-c2ccc3ncnc(N4CCc5cc(F)c(Cl)cc54)c3c2)cnc1N`
Out: 57

In: # repeat for `O=C1NC(=S)/C(=C/c2cn(-c3ccccc3)nc2-c2ccccc2)S1`
Out: 14.6

In: Next compound up: `O=C(Nc1ccc(-c2ccc3c(c2)NC(=O)/C3=C\c2ccc[nH]2)cc1)Nc1ccc(Cl)c(C(F)(F)F)c1`
Out: 37.9

In: Next compound: `COc1ccc2[nH]c(=O)c(CSc3ccccc3Nc3nccc(-c4ccc(C(F)(F)F)cc4)n3)cc2c1`
Out: 22.5

In: Then what about the compound CC1=C(C(=O)OCc2ccccc2)C(c2ccc(N(C)C)cc2)n2c(nc3ccccc32)N1 (configuration not stated) ?
Out: 90.4

In: Ok, now `FC(F)(F)c1cc2c(Cl)ncnc2n1CCN1CCOCC1`
Out: 78.5

In: For `COc1cncc(-c2ccc3ncnc(N4CCc5ccc(Cl)cc54)c3c2)c1` then?
Out: 51

In: Here is the next compound: `N/C(=N\c1nc2ccc([N+](=O)[O-])cc2s1)NC(=O)Nc1ccccc1Cl`
Out: -0.568
